# target_or_test_system: Multidrug resistance-associated protein 1 (Homo sapiens, UniProt P33527)
# Sequence (P33527 whole entry): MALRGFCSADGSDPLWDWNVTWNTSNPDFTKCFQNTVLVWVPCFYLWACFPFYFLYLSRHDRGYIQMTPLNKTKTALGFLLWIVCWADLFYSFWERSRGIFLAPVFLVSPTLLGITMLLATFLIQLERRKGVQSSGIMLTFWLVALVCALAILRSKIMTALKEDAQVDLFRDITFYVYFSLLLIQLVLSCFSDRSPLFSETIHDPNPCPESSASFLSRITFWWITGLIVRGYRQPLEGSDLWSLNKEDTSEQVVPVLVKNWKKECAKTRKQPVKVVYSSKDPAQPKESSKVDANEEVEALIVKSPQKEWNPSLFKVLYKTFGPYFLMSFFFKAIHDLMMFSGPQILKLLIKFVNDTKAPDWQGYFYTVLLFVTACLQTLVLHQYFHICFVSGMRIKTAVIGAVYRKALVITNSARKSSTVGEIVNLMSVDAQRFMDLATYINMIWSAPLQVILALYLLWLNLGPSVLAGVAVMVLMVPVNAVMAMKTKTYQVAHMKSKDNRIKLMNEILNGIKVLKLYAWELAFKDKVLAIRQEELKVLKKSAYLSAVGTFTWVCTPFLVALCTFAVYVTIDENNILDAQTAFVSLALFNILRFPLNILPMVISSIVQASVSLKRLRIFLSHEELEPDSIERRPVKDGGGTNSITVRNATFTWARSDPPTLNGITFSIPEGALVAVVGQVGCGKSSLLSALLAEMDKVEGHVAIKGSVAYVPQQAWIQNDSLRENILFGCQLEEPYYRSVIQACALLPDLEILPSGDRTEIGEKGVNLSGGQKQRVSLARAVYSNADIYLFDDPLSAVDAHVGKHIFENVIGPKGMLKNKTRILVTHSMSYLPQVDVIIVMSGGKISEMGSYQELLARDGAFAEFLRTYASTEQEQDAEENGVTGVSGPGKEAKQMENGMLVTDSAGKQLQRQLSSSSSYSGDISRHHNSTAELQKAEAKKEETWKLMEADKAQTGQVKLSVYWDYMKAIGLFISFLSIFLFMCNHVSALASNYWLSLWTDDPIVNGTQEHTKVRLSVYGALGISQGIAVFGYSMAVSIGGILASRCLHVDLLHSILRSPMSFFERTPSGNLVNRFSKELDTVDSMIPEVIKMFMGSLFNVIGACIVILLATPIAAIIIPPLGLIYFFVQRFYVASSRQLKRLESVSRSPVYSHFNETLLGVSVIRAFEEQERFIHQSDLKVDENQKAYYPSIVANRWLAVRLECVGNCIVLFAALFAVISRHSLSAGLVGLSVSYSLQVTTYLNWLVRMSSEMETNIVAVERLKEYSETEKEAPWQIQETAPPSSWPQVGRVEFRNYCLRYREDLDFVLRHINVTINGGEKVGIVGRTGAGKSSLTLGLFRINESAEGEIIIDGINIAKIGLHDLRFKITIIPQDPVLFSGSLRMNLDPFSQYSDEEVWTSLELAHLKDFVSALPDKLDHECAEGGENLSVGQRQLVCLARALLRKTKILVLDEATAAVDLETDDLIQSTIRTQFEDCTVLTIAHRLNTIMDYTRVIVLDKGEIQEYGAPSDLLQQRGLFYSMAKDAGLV
# assay_details: The MRP1 antagonism score is the percentage of MCF-7/VP cells surviving in the absence of vincristine to that of in the presence of vincristine.
# Assay type: functional
// reported Ratio for each item listed
Answer field: number only, no words.

Cn1c(=O)c(COc2ccccc2Cc2ccccc2)nc2ccccc21: 1.1
CNc1ccc(OC)cc1-c1nc2ccccc2n(C)c1=O: 3.5
Nc1ccc(Br)cc1-c1nc2cc3ccccc3cc2nc1O: 1.3
CNc1ccc(OC)cc1-c1nc2cc3ccccc3cc2n(C)c1=O: 2.1
Cn1c(=O)c(COc2ccc(C#N)cc2)nc2ccccc21: 0.8
Cn1c(=O)c(Cc2ccccc2)nc2ccccc21: 1.1

# input for lookup
Exercise: Which Ratio value is on record for Nc1ccccc1-c1nc2ccccc2nc1O ?
Solution: 1.1

---

// reported Toxicity for each item listed
# System: MCF7
# Format: functional, Homo sapiens
Hi! Could you send only the number? It should be in %, unit omitted.

// below: answered molecules
Nc1ccc(Br)cc1-c1nc2cc3ccccc3cc2nc1O: 49
CNc1ccc(OC)cc1-c1nc2ccccc2n(C)c1=O: 7
CNc1ccccc1-c1nc2cc([N+](=O)[O-])ccc2n(C)c1=O: 7
Nc1ccccc1-c1nc2cc3ccccc3cc2nc1O: 37
CNc1ccc(OC)cc1-c1nc2cc3ccccc3cc2nc1O: 25
CNc1ccc(OC)cc1-c1nc2cc3ccccc3cc2n(C)c1=O: 3

Exercise: Which Toxicity value is on record for Nc1ccccc1-c1nc2ccccc2nc1O ?
Solution: 22

---

// reported IC50 for each item listed
# Tested on: MCF7
# assay_details: Cytotoxicity against MCF-7 breast carcinoma cells at 10 ug/mL
# Format: functional, cell-based
# particulars: Homo sapiens
Hi! Could you send only the number? It should be in µM, unit omitted.

Exercise: Checklist item: IC50 tested on MCF7, entry CN(C)c1cccc(OCc2nc3ccccc3n(C)c2=O)c1 , value?
Solution: 57

Exercise: Checklist item: IC50 tested on MCF7, entry Cn1c(=O)c(COc2ccc(-c3ccccc3)cc2)nc2ccccc21 , value?
Solution: 30

Exercise: Checklist item: IC50 tested on MCF7, entry Cn1c(=O)c(COc2cccc3ccccc23)nc2ccccc21 , value?
Solution: 20

Exercise: Checklist item: IC50 tested on MCF7, entry Cn1c(=O)c(COc2cccc(Nc3ccccc3)c2)nc2ccccc21 , value?
Solution: 25

Exercise: Checklist item: IC50 tested on MCF7, entry Cn1c(=O)c(COc2ccc(F)cc2)nc2ccccc21 , value?
Solution: 26

---

// reported Ratio for each item listed
# target_or_test_system: Multidrug resistance-associated protein 1 (Homo sapiens, UniProt P33527)
# assay_details: The MRP1 antagonism score is the percentage of MCF-7/VP cells surviving in the absence of vincristine to that of in the presence of vincristine.
# Assay type: functional
Answer field: number only, no words.

// below: answered compounds
Cn1c(=O)c(COc2cccc3ccccc23)nc2ccccc21: 0.9
Cn1c(=O)c(COc2ccc(F)cc2)nc2ccccc21: 0.8
CN(C)c1cccc(OCc2nc3ccccc3n(C)c2=O)c1: 0.9
Cn1c(=O)c(COc2ccc(-c3ccccc3)cc2)nc2ccccc21: 0.7
Cc1nc2ccccc2nc1O: 1.1

Exercise: Which Ratio value is on record for Oc1nc2ccccc2nc1Cc1ccccc1 ?
Solution: 1

Exercise: Which Ratio value is on record for CNc1ccc(OC)cc1-c1nc2cc3ccccc3cc2nc1O ?
Solution: 1

---

# target_or_test_system: Multidrug resistance-associated protein 1 (Homo sapiens)
# assay_details: The MRP1 antagonism score is the percentage of MCF-7/VP cells surviving in the absence of vincristine to that of in the presence of vincristine.
# Assay type: functional
measurement_label: Ratio
Answer field: number only, no words.

CNc1ccccc1-c1nc2cc([N+](=O)[O-])ccc2n(C)c1=O: 1.1

Exercise: Which Ratio value is on record for Cc1cc(OCc2nc3ccccc3n(C)c2=O)ccc1[N+](=O)[O-] ?
Solution: 1.1

Exercise: Which Ratio value is on record for Cn1c(=O)c(COc2cccc(Nc3ccccc3)c2)nc2ccccc21 ?
Solution: 0.9

---

# Test system: MCF7
# assay_details: Cytotoxicity against MCF-7 breast carcinoma cells at 10 ug/mL
# Type: functional, cell-based
# particulars: Homo sapiens
// reported IC50 for each item listed

// below: answered compounds
COC(=O)c1ccc(OCc2nc3ccccc3n(C)c2=O)c(OC)c1: 71 µM
Cc1nc2ccccc2nc1O: > 156 µM
Cn1c(=O)c(COc2ccccc2)nc2ccccc21: > 94 µM

Exercise: Which IC50 value is on record for Cn1c(=O)c(COc2ccccc2C(=O)Nc2ccccc2)nc2ccccc21 ?
Solution: > 32 µM

Exercise: Which IC50 value is on record for CCOC(=O)c1ccc(OCc2nc3ccccc3n(C)c2=O)cc1 ?
Solution: > 74 µM

Exercise: Which IC50 value is on record for Cn1c(=O)c(COc2ccccc2Cc2ccccc2)nc2ccccc21 ?
Solution: 8.1 µM

---

// reported IC50 for each item listed
# System: MCF7
# assay_details: Cytotoxicity against MCF-7 breast carcinoma cells at 10 ug/mL
# Type: functional, cell-based
# particulars: Homo sapiens

Cn1c(=O)c(Cc2ccccc2)nc2ccccc21: > 100 µM
Cn1c(=O)c(COc2cccnc2)nc2ccccc21: > 56 µM

Exercise: Checklist item: IC50 tested on MCF7, entry Cc1nc2ccccc2n(C)c1=O , value?
Solution: > 144 µM

---

// reported IC50 for each item listed
# Test system: MCF7
# assay_details: Cytotoxicity against MCF-7 breast carcinoma cells at 10 ug/mL
# Format: functional, cell-based
# particulars: Homo sapiens

Oc1nc2ccccc2nc1Cc1ccccc1: > 106 µM
Cn1c(=O)c(COc2ccc(C(=O)c3ccccc3)cc2)nc2ccccc21: > 67 µM
Cc1cc(OCc2nc3ccccc3n(C)c2=O)ccc1[N+](=O)[O-]: > 77 µM
Cn1c(=O)c(COc2c(F)c(F)c(F)c(F)c2F)nc2ccccc21: > 70 µM
Cn1c(=O)c(COc2ccc(C#N)cc2)nc2ccccc21: > 43 µM

# input for lookup
Exercise: Which IC50 value is on record for COc1ccc(CCN(C)CCCC(C#N)(c2ccc(OC)c(OC)c2)C(C)C)cc1OC (stereo unspecified) ?
Solution: > 51 µM

---

# target_or_test_system: Multidrug resistance-associated protein 1 (Homo sapiens, UniProt P33527)
# assay_details: The MRP1 antagonism score is the percentage of MCF-7/VP cells surviving in the absence of vincristine to that of in the presence of vincristine.
# Assay type: functional
measurement_label: Ratio
Answer field: number only, no words.

// below: answered molecules
Nc1ccccc1-c1nc2cc3ccccc3cc2nc1O: 1.3
Cc1nc2ccccc2n(C)c1=O: 0.7
Cn1c(=O)c(COc2ccc(C(=O)c3ccccc3)cc2)nc2ccccc21: 0.9
Cn1c(=O)c(COc2ccccc2C(=O)Nc2ccccc2)nc2ccccc21: 1
Cn1c(=O)c(COc2cccnc2)nc2ccccc21: 1.1

Exercise: Which Ratio value is on record for CCOC(=O)c1ccc(OCc2nc3ccccc3n(C)c2=O)cc1 ?
Solution: 0.9

Exercise: Which Ratio value is on record for Cn1c(=O)c(COc2c(F)c(F)c(F)c(F)c2F)nc2ccccc21 ?
Solution: 0.8

Exercise: Which Ratio value is on record for Cn1c(=O)c(COc2ccccc2)nc2ccccc21 ?
Solution: 1

Exercise: Which Ratio value is on record for COC(=O)c1ccc(OCc2nc3ccccc3n(C)c2=O)c(OC)c1 ?
Solution: 1.1
